Biological target: Glutamate receptor ionotropic kainate 1 (Homo sapiens)
Assay: Positive allosteric modulation at kainate receptor in HEK293 cells expressing GluK1-Q1b assessed as glutamate induced calcium influx by measuring efficacy relative to control
Conditions: filed as positive allosteric modulator
PROPERTY_LABEL: Efficacy (%)

// worked examples, Efficacy included
| COMPOUND | OBSERVED_RESULT |
| --- | --- |
| CCN1c2cc(Cl)sc2S(=O)(=O)N(C)C1C (centres undefined) | 50 |
| O=S1(=O)NCN(C2CC2)c2cc(Cl)sc21 | 50 |

(P) CC1N(CC(F)F)c2cc(Cl)sc2S(=O)(=O)N1C (centres undefined)
(Q) C=CCN1CNS(=O)(=O)c2sc(Cl)cc21
Q) Between these two entries, P and Q , state which has the higher Efficacy. State the label of the item chosen.
A) Q
(Q: 112%, P: 50%)
